B1: Twister Ribozyme (parent)
chain: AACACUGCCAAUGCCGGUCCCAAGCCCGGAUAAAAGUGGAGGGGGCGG

Variants of: B1
Test: self-cleavage, relative activity (ratio to wild type); higher = more cleavage; co-transcriptional
The threshold is inclusive: self-cleavage of exactly 0.1 counts as y; values below receive n.

Some solved entries appear below for comparison.
[[record]]
sequence_variant = "G7U A40U"
assigned_category = "n"

[[record]]
sequence_variant = "A11C C26A"
assigned_category = "y"

[[record]]
sequence_variant = "G24U G36U"
assigned_category = "n"

[[record]]
sequence_variant = "G7U C20U"
assigned_category = "n"

[[record]]
sequence_variant = "G36U G42C"
assigned_category = "y"

[[record]]
sequence_variant = "A4U U6A"
assigned_category = "n"

[[record]]
sequence_variant = "A4G C5A"
assigned_category = "y"

[[record]]
sequence_variant = "C15U G41A"
assigned_category = "y"

[[record]]
sequence_variant = "G13A G24A"
assigned_category = "n"

[[record]]
sequence_variant = "C14G G38A"
assigned_category = "y"


(Q) Does G36U C46A have a reported self-cleavage of at least 0.1?
(A) y

(Q) Same question for C14G A35G please.
(A) y

(Q) Same question for C8A A10U please.
(A) y

(Q) Same question for U6G C27A please.
(A) n

(Q) Same question for G13C G43C please.
(A) y

(Q) Same question for C3U G24U please.
(A) n

(Q) Same question for G17C A23C please.
(A) n

(Q) Same question for A33G A34C please.
(A) y

(Q) Same question for G38U G41A please.
(A) y

Reference source for all entries: the RNAGym collection of RNA variant scans (doi:10.7554/elife.80360)
